Exercise: state measured inhibition at 1 µM for each of the compounds provided.
Tested system: CYP2D6 (Homo sapiens)
Sequence (P10635 whole entry): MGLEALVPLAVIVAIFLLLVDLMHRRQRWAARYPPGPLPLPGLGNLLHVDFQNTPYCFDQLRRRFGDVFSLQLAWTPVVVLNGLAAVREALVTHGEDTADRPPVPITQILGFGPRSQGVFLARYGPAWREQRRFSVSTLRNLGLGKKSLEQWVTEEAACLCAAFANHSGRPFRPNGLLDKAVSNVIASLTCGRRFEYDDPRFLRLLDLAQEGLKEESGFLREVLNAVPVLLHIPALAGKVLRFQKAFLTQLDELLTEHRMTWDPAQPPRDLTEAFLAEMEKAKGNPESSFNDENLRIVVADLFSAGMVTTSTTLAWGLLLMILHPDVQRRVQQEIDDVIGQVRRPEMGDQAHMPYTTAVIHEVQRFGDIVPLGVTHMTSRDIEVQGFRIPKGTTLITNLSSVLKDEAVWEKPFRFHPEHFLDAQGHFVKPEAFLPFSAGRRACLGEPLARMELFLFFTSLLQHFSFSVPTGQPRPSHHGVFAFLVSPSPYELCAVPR
Method description: Inhibition of human CYP2D6 expressed in baculovirus-infected insect microsomes at 1 uM
Type: ADME, Microsome

If you can, please state the reported inhibition at 1 µM value of COc1cncc(-c2cc3c4c(c2)CCN4C(=O)CC3)c1 . 9%

One more compound: O=C1CCc2cc(-c3cccnc3)cc3c2N1CC3 < 5%

What would you report for O=C1CCc2cc(-c3cncc(-c4cccc(F)c4)c3)cc3c2N1CC3 ? < 5%

----------
I'd be grateful if you could share measured log10(IC50) for these entries.
Tested system: UniProtKB P15538
Method description: Inhibition of human CYP11B1 expressed in hamster V79 MZh cells assessed as conversion of [4-14C]-11-deoxycorticosterone substrate by HPTLC assay
Reminder: these figures are log10 of reported IC50, in nM before transformation.

Which log10(IC50) is reported for this molecule? COc1ccccc1-c1cncc(-c2cc3c4c(c2)CCN4C(=O)CC3)c1 2.11

Check O=C1CCc2cc(-c3cncc(-c4cc(F)ccc4F)c3)cc3c2N1CC3 too. 2.26

Try this molecule too: COc1ccc(-c2cncc(-c3cc4c5c(c3)CCN5C(=O)CC4)c2)cc1 1.32

What about O=C1CCc2cc(-c3cncc4ccccc34)cc3c2N1CCC3 ? 1.53

Next molecule up: O=C1CCc2cc(-c3cccnc3)cc3c2N1CCC3 3.36

Here is the next molecule: O=C1CCc2cc(-c3cccnc3)cc3c2N1CC3 2.85

----------
Would you kindly list inhibition at 1 µM for each of these molecules?
Tested system: CYP3A4 (Homo sapiens, UniProt P08684)
Sequence (P08684 whole entry): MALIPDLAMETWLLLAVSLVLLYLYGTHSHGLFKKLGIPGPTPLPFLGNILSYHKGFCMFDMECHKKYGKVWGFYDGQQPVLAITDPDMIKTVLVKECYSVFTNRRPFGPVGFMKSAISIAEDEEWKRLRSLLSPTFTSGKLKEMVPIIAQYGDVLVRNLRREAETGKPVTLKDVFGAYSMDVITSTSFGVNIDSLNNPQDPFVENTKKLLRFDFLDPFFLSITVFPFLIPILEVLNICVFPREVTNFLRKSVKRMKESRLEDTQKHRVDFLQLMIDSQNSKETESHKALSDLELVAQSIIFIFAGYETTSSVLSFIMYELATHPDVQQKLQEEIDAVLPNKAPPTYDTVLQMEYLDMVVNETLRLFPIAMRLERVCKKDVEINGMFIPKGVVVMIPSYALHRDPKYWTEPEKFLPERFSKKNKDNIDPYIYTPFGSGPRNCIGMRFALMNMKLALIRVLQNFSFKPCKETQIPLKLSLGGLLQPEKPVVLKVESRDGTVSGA
Method description: Inhibition of human CYP3A4 expressed in baculovirus-infected insect microsomes at 1 uM
Format: ADME, Microsome
Report the value in % with no unit label.

Need inhibition at 1 µM, item O=C1CCc2cc(-c3cccnc3)cc3c2N1CCC3 6

Again, but for COc1cncc(-c2cc3c4c(c2)CCC(=O)N4CCC3)c1 12

Also check COc1cncc(-c2cc3c4c(c2)CCN4C(=O)CC3)c1 14

Now consider O=C1CCc2cc(-c3cncc(-c4cccc(F)c4)c3)cc3c2N1CC3 and answer again. 37

----------
Tested system: Cytochrome P450 11B1, mitochondrial (Homo sapiens, UniProt P15538)
Sequence (P15538 whole entry): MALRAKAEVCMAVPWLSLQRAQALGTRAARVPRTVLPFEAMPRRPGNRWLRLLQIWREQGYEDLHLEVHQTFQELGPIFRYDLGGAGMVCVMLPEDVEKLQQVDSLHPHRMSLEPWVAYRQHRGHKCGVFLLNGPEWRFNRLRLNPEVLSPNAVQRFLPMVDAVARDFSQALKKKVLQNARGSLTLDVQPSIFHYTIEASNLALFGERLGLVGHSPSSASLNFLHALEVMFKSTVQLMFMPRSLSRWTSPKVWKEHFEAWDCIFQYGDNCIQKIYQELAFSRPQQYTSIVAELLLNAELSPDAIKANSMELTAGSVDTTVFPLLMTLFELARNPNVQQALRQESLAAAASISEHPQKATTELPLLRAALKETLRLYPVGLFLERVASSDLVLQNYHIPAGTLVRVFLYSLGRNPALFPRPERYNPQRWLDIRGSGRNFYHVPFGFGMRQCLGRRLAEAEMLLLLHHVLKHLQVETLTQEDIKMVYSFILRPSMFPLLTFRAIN
Method description: Inhibition of human CYP11B1 expressed in hamster V79 MZh cells assessed as conversion of [4-14C]-11-deoxycorticosterone substrate by HPTLC assay
Format: cell-based
pIC50: −log10 of the molar value.
The threshold is inclusive: pIC50 of exactly 6 counts as y; values below receive n.

Reported pIC50 at or above 6? O=C1CCc2cc(-c3cncc(-c4ccc(F)cc4)c3)cc3c2N1CC3 y

Likewise for O=C1CCc2cc(-c3cncnc3)cc3c2N1CC3 ? n

Same question, O=C1CCc2cc(-c3cncc(O)c3)cc3c2N1CC3 this time n

Now consider S=C1CCc2cc(-c3cccnc3)cc3c2N1CC3 . y

Now consider O=C1CCc2cc(-c3cncc(-c4cccc(OC(F)(F)F)c4)c3)cc3c2N1CC3 . n

Do the same for O=C1CCc2cc(-c3cncc(-c4ccccc4F)c3)cc3c2N1CC3 please y

Request: O=C1CCc2cc(-c3cncc(-c4ccc(F)c(F)c4)c3)cc3c2N1CC3 y

Could you do the same for O=C1CCc2cc(-c3cncc(C(F)(F)F)c3)cc3c2N1CC3 , please? y

Also need COc1cncc(-c2cc3c4c(c2)CCC(=O)N4CCC3)c1 , thanks. y

Note, next up: O=C1CCc2cc(-c3cncc4ccccc34)cc3c2N1CC3 y

Also O=C1CCc2cc(-n3ccnc3)cc3c2N1CC3 , if possible. n
